IC50 values by entry
target: wild-type HIV-1 protease (Human immunodeficiency virus type 1 group M subtype B, UniProt P04585)
property: IC50 (nM)

[[record]]
molecule = "C[C@H](c1cccc(C(=O)N2Cc3ccccc3C2)c1)N1C(=N)NC(c2ccccc2)(c2ccccc2)C1=O"
value_observed = 3.67

[[record]]
molecule = "N=C1NC(c2ccccc2)(c2ccccc2)C(=O)N1Cc1cc(C(=O)N2Cc3ccccc3C2)ccn1"
value_observed = 16.7

[[record]]
molecule = "N=C1NC(c2ccccc2)(c2ccccc2)C(=O)N1Cc1cccc(C(=O)N2CCc3cc(C(F)(F)F)ccc3C2)c1"
value_observed = 71

[[record]]
molecule = "COC(=O)N1CCN(C(=O)c2cccc(CN3C(=N)NC(CCC(C)C)(c4cccc(-c5cccnc5)c4)C3=O)c2)CC1 (stereo not drawn)"
value_observed = 89.1

[[record]]
molecule = "Cc1ncc2c(n1)CN(C(=O)c1cccc(CN3C(=N)NC(c4ccccc4)(c4ccccc4)C3=O)c1)C2"
value_observed = 36.3

[[record]]
molecule = "CN(C)C(=O)N1CCN(C(=O)c2cc(F)cc(CN3C(=N)NC(c4ccccc4)(c4ccccc4)C3=O)c2)CC1"
value_observed = 122

[[record]]
molecule = "N=C1NC(c2ccccc2)(c2ccccc2)C(=O)N1Cc1cc(F)cc(C(=O)N2Cc3cncnc3C2)c1"
value_observed = 22.1

[[record]]
molecule = "CC(C)CC[C@]1(c2ccc(F)cc2)NC(=N)N(C(CCCc2ccccc2)c2ccc(C(F)(F)F)c(C(=O)N3CCn4c(nnc4C(F)(F)F)C3)c2)C1=O (stereo partly drawn)"
value_observed = 6.19

[[record]]
molecule = "CC(C)C[C@]1(c2ccccc2)NC(=N)N(Cc2ccc(C(F)(F)F)c(C(=O)N3Cc4nccnc4C3)c2)C1=O"
value_observed = 5.24

[[record]]
molecule = "C=CCOC(=O)N1CCN(C(=O)c2cc(CN3C(=N)N[C@](CCCC(F)(F)F)(c4ccc(F)cc4)C3=O)ccc2C(F)(F)F)CC1"
value_observed = 23.2

[[record]]
molecule = "N=C1NC(c2ccccc2)(c2ccccc2)C(=O)N1Cc1cccc(C(=O)N2Cc3[nH]nc(C(F)(F)F)c3C2)c1"
value_observed = 2.74

[[record]]
molecule = "N=C1NC(CCC2CC2)(c2cccc(F)c2)C(=O)N1Cc1ccc(C(F)(F)F)c(C(=O)N2Cc3nccnc3C2)c1 (stereo not drawn)"
value_observed = 2.85

[[record]]
molecule = "N=C1N[C@](CCCC(F)(F)F)(c2ccc(F)cc2)C(=O)N1Cc1ccc(C(F)(F)F)c(C(=O)N2CCN(c3cncnc3)CC2)c1"
value_observed = 15.2

[[record]]
molecule = "N=C1NC(c2ccc(F)cc2)(c2ccc(F)cc2)C(=O)N1Cc1cc(C(=O)N2Cc3nccnc3C2)ccn1"
value_observed = 34.2

[[record]]
molecule = "CN(C)C(=O)c1nc2n(c1Cl)CCN(C(=O)c1cccc(CN3C(=N)NC(c4ccccc4)(c4ccccc4)C3=O)c1)C2"
value_observed = 64.2

[[record]]
molecule = "C=Cc1c(C(F)(F)F)nc2n1CCN(C(=O)c1cccc(CN3C(=N)NC(c4ccccc4)(c4ccccc4)C3=O)c1)C2"
value_observed = 43.5

[[record]]
molecule = "C[C@H](c1cccc(C(=O)N2Cc3cncnc3C2)c1)N1C(=N)NC(c2ccc(F)cc2)(c2ccc(F)cc2)C1=O"
value_observed = 5.36

[[record]]
molecule = "N=C1NC(c2ccccc2)(c2ccccc2)C(=O)N1Cc1ccc(Cl)c(C(=O)N2Cc3cccnc3C2)c1"
value_observed = 5.42

[[record]]
molecule = "CC(C)CC[C@]1(c2ccccc2)NC(=N)N([C@@H]2CCS(=O)(=O)c3ccc(C(=O)N4Cc5nccnc5C4)cc32)C1=O"
value_observed = 28.3

[[record]]
molecule = "CCc1nnc2n1CCN(C(=O)c1cc(CN3C(=N)N[C@](CCCC(F)(F)F)(c4ccc(F)cc4)C3=O)ccc1C(F)(F)F)C2"
value_observed = 7.39

[[record]]
molecule = "CC(C)CC[C@]1(c2ccccc2)NC(=N)N([C@H](C)c2ccc(C(F)(F)F)c(C(=O)N3Cc4nccnc4C3)c2)C1=O"
value_observed = 3.04

[[record]]
molecule = "N=C1N[C@](CCCC(F)(F)F)(c2ccc(F)cc2)C(=O)N1Cc1ccc(C(F)(F)F)c(C(=O)N2Cc3cnc(-c4cccnc4)nc3C2)c1"
value_observed = 4.91

[[record]]
molecule = "CC1(C)CCN(C(=O)c2cc(CN3C(=N)NC(c4ccc(F)cc4)(c4ccc(F)cc4)C3=O)ccc2C(F)(F)F)C1"
value_observed = 89.8

[[record]]
molecule = "CC(C)CC[C@]1(c2ccc(F)cc2)NC(=N)N(C(c2ccc(C(F)(F)F)c(C(=O)N3Cc4nccnc4C3)c2)C2CCCC2)C1=O (stereo partly drawn)"
value_observed = 23.2

[[record]]
molecule = "N=C1NC(c2ccc(F)cc2)(c2ccc(F)cc2)C(=O)N1Cc1ccc(Cl)c(C(=O)N2CCC(F)(F)C2)c1"
value_observed = 98.5

[[record]]
molecule = "CC(C)CCC1(c2ccc(F)cc2)NC(=N)N(Cc2cccc(C(=O)N3Cc4ccccc4C3)c2)C1=O (stereo not drawn)"
value_observed = 13.1

[[record]]
molecule = "Cc1nc2c([nH]1)CN(C(=O)c1cccc(CN3C(=N)NC(CCC(C)C)(c4ccccc4)C3=O)c1)C2 (stereo not drawn)"
value_observed = 21.2


----------
target: wild-type HIV-1 protease (Human immunodeficiency virus type 1 group M subtype B)
property: IC50 (nM)

[[record]]
compound = "N=C1N[C@](CCC2CC2)(c2ccc(F)cc2)C(=O)N1[C@@H]1CCOc2ccc(C(=O)N3Cc4nccnc4C3)cc21 [Compound 107]"
property = "IC50"
value_observed = 25.9

[[record]]
compound = "N=C1NC(c2ccc(F)cc2)(c2ccc(F)cc2)C(=O)N1Cc1cccc(C(=O)N2CCN(c3ccccn3)CC2)c1 [Compound 285]"
property = "IC50"
value_observed = 33.3

[[record]]
compound = "CS(=O)(=O)CCn1cc(-c2ncc3c(n2)CN(C(=O)c2cc(CN4C(=N)N[C@](CCCC(F)(F)F)(c5ccc(F)cc5)C4=O)ccc2C(F)(F)F)C3)cn1 [Compound 17]"
property = "IC50"
value_observed = 1.99


----------
// wild-type HIV-1 protease (Human immunodeficiency virus type 1 group M subtype B) pIC50 records
pIC50: −log10 of the molar value.
property: pIC50

[[record]]
compound = "Cc1noc2ccc(-c3ncc4c(n3)CN(C(=O)c3cc(CN5C(=N)N[C@](CCCC(F)(F)F)(c6ccc(F)cc6)C5=O)ccc3C(F)(F)F)C4)cc12"
value_observed = 8.15

[[record]]
compound = "COC(=O)N1CCN(C(=O)c2ccnc(CN3C(=N)NC(CCC(C)C)(c4ccccc4)C3=O)c2)CC1 (stereo not shown)"
value_observed = 7.09

[[record]]
compound = "N#Cc1ncc2c(n1)CN(C(=O)c1cccc(CN3C(=N)NC(c4ccccc4)(c4ccccc4)C3=O)c1)C2"
value_observed = 8.25

[[record]]
compound = "COC(=O)N1CCN(C(=O)c2cccc([C@@H](C)N3C(=N)N[C@](CC(C)C)(c4ccccc4)C3=O)c2)CC1"
value_observed = 7.51

[[record]]
compound = "COc1ccc(CN2C(=N)NC(c3ccc(Cl)cc3)(c3ccc(Cl)cc3)C2=O)cc1C(=O)N1Cc2ccccc2C1"
value_observed = 7.27

[[record]]
compound = "CN1CCN(C(=O)c2cc(F)cc(CN3C(=N)NC(c4ccccc4)(c4ccccc4)C3=O)c2)CC1=O"
value_observed = 7.05

[[record]]
compound = "CC(C)CC1(c2ccccc2)NC(=N)N(Cc2ccc(Cl)c(C(=O)N3Cc4cccnc4C3)c2)C1=O (stereo not shown)"
value_observed = 8.29


----------
target: wild-type HIV-1 protease (Human immunodeficiency virus type 1 group M subtype B, UniProt P04585)
pIC50: −log10 of the molar value.
property: pIC50

[[record]]
compound = "CC(=O)N1CCN(C(=O)c2cc(CN3C(=N)N[C@](CCCC(F)(F)F)(c4ccc(F)cc4)C3=O)ccc2C(F)(F)F)CC1 [Compound 109]"
value_observed = 7.58

[[record]]
compound = "N#Cc1ncc2c(n1)CN(C(=O)c1cncc(CN3C(=N)NC(c4ccc(F)cc4)(c4ccc(F)cc4)C3=O)c1)C2 [Compound 393]"
value_observed = 7.17

[[record]]
compound = "N=C1NC(c2ccc(F)cc2)(c2ccc(F)cc2)C(=O)N1Cc1ccc(C(F)(F)F)c(C(=O)N2CCC2)c1 [Compound 173]"
value_observed = 7.27

[[record]]
compound = "CC(C)CCC1(c2ccccc2)NC(=N)N(Cc2cccc(C(=O)N3CCNC(=O)C3)c2)C1=O (stereo not shown) [Compound 351]"
value_observed = 7.06

[[record]]
compound = "Cc1nc2c(s1)CN(C(=O)c1cccc(CN3C(=N)NC(c4ccccc4)(c4ccccc4)C3=O)c1)C2 [Compound 206]"
value_observed = 8.09

[[record]]
compound = "N#Cc1ncc2c(n1)CN(C(=O)c1ccnc(CN3C(=N)NC(c4ccccc4)(c4ccccc4)C3=O)c1)C2 [Compound 397]"
value_observed = 7.74

[[record]]
compound = "N=C1NC(c2ccc(F)cc2)(c2ccccn2)C(=O)N1Cc1cccc(C(=O)N2Cc3ccccc3C2)c1 (stereo not shown) [Compound 256]"
value_observed = 7.68


Data origin, for the record: patent US20200069691A1
